Reference source: patent US11753403B2

Consider the following molecules and their measured pIC50 readings.
# ASSAYED_TARGET: Human eIF4E (aa 28-217) / biotin labeled 4G2 peptide (Homo sapiens (Human))
# Sequence (P06730 28-217): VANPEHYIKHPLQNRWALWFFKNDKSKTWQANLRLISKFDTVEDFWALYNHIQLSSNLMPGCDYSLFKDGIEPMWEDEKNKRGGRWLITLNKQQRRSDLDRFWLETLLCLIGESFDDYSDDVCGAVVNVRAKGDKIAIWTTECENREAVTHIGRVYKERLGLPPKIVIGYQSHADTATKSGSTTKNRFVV
# ASSAY_DETAILS: Human eIF4E/4G2 binding assay (TR-FRET)
# ASSAY_CONDITIONS: Human eIF4E/4G2 TR-FRET binding assay; head says IC50, legend says EC50
pIC50: −log10 of the molar value.

Use the examples below as a reference point.
> print(dat)
                                   molecule                            assayed.target        result
1  CC(C)Cc1sc(N(CCC(=O)N(C)CCN)Cc2ccccc2)nc1-c1ccc(Cl)c(Cl)c1 [I-132]  Human eIF4E (aa 28-217) / biotin labeled 4G2 peptide (Homo sapiens (Human))  5.00 to 6.00
2  CC(C)Cc1sc(N(CCC(=O)O)Cc2ccccc2)nc1-c1ccc(-c2ccc(F)cc2)cc1 [I-101]  Human eIF4E (aa 28-217) / biotin labeled 4G2 peptide (Homo sapiens (Human))        ≥ 6.00
3  CC(C)Cc1sc(N(CCC(=O)NCC(=O)O)Cc2ccccc2)nc1-c1ccc(Cl)c(Cl)c1 [I-196]  Human eIF4E (aa 28-217) / biotin labeled 4G2 peptide (Homo sapiens (Human))  5.00 to 6.00

Moving on to the next molecule.
Output pIC50 of CC(C)c1sc(NCC(Cc2ccc3[nH]ccc3c2)C(=O)O)nc1-c1ccc(Cl)cc1 (stereo not shown) [I-46]
5.00 to 6.00
